# Target Under Test: COX-1 (Homo sapiens, UniProt P23219)
# Sequence (P23219 24-599): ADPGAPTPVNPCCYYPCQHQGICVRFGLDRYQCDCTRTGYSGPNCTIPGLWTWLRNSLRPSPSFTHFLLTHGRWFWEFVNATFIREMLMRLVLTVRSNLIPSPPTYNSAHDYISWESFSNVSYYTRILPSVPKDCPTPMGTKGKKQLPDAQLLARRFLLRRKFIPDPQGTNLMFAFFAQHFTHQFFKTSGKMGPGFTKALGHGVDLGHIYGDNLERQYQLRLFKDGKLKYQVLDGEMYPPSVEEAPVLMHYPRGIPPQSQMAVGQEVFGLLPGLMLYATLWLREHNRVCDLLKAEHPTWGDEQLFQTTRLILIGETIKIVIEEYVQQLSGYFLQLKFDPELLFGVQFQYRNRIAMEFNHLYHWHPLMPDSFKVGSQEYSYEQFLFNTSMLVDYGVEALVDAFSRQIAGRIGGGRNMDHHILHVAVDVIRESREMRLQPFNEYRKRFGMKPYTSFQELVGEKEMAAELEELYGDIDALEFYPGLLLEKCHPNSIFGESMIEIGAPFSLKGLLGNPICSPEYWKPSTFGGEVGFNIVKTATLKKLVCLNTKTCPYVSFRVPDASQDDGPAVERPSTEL
# Conditions Used: read-out: concentration responsible for the inhibition of 50% of the production of TXA2 (IC50); human whole blood without anticoagulant, 37° C., 1 hour, serum
Experimental Endpoint: IC50

Lookup: Tell me the measured IC50 of O=C(Cc1ccccc1Nc1c(Cl)cccc1Cl)OCc1ccc2c(c1)no[n+]2[O-] , please.
Found: ~40.4 µM
